Each record here notes measured IC50.
target-or-system: recombinant integrin α4β7 (Homo sapiens, UniProt P13612+P26010, DEL724-798)
Construct: purchased R&D Systems 5397-A3-050
Sequence (P13612 34-970 limits assumed, stated change not applied): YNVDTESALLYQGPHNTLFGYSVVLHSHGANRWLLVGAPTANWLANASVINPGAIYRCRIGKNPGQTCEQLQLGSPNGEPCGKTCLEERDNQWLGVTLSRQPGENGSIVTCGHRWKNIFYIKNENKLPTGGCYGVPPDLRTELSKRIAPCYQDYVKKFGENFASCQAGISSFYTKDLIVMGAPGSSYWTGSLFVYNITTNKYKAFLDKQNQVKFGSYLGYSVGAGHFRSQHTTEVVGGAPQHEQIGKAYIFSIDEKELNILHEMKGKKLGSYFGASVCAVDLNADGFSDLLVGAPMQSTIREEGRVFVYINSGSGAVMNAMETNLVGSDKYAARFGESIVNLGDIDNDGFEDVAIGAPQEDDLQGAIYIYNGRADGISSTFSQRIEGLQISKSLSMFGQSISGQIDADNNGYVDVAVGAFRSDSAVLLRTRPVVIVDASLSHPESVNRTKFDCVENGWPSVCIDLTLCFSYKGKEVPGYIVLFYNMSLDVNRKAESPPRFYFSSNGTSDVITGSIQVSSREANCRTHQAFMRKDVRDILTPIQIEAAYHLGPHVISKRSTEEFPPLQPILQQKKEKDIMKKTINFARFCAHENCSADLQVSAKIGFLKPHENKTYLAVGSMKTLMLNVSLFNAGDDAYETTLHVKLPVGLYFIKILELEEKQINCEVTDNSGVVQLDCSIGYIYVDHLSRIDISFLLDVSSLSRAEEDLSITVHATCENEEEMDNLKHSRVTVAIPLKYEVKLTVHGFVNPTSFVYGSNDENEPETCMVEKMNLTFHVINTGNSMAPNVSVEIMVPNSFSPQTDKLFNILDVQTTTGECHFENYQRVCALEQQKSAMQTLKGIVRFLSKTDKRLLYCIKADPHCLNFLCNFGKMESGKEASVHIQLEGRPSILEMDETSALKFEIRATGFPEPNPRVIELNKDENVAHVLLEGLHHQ
Sequence (P26010 20-723 limits assumed, stated change not applied): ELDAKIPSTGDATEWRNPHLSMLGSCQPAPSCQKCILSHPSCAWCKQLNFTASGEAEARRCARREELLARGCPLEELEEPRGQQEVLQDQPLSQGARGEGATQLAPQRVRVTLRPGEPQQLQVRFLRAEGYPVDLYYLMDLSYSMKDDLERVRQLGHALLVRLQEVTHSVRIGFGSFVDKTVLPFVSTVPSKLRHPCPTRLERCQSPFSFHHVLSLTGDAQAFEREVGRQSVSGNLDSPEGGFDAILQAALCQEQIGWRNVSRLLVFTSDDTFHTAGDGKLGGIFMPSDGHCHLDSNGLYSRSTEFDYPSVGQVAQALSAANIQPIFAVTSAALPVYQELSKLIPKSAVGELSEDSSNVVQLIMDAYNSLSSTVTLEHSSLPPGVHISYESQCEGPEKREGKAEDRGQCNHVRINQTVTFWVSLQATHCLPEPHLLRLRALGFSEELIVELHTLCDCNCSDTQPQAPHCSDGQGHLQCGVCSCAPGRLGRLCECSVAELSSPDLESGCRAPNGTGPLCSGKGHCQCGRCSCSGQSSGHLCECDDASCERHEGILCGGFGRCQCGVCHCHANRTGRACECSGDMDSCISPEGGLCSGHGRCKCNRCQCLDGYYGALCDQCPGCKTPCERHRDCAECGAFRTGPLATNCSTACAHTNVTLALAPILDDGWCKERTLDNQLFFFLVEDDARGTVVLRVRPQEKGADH
assay-method-text: Integrin α4β7—MAdCAM-1 ELISA competition assay
Type: binding
run-conditions: read-out: ELISA α4β7 Assay IC50
Answers without a unit are incomplete; give the number and then its unit.

Use the examples below as a reference point.
{"columns": ["smiles-data", "val"],
 "data": [
  ["CC(C)C[C@@H]1NC(=O)C[C@H](CCCCN)N(C)C(=O)[C@H](CCCCNC(=O)CCOCCOCCOCCOCCOCCOCCOCCC(=O)NCCCC[C@@H]2NC(=O)[C@@H]3CCCN3[C@H](C(=O)NC(C)(C)C)[C@H](C)NC(=O)[C@H]([C@@H](C)O)NC(=O)[C@H](CC(=O)O)NC(=O)[C@H](CC(C)C)NC(=O)C[C@H](CCCCN)N(C)C2=O)NC(=O)[C@@H]2CCCN2[C@H](C(=O)NC(C)(C)C)[C@H](C)NC(=O)[C@H]([C@@H](C)O)NC(=O)[C@H](CC(=O)O)NC1=O", "9.5 nM"],
  ["CC(C)C[C@@H]1NC(=O)c2ccc(-c3ccc(N4CCN(C(=O)C5(C(=O)N6CCN(c7ccc(-c8ccc9cc8CNC(=O)[C@@H]8CCCN8[C@H](C(=O)NC(C)(C)C)[C@H](C)NC(=O)[C@H]([C@@H](C)O)NC(=O)[C@H](CC(=O)O)NC(=O)[C@H](CC(C)C)NC9=O)cc7)CC6)Cc6ccccc6C5)CC4)cc3)c(c2)CNC(=O)[C@@H]2CCCN2[C@H](C(=O)NC(C)(C)C)[C@H](C)NC(=O)[C@H]([C@@H](C)O)NC(=O)[C@H](CC(=O)O)NC1=O", "18 nM"],
  ["CC(C)C[C@@H]1NC(=O)c2ccc(-c3ccc(N4CCN(C(=O)c5cc(F)ccc5-c5ccc(F)cc5C(=O)N5CCN(c6ccc(-c7ccc8cc7CNC(=O)[C@@H]7CCCN7[C@H](C(=O)NC(C)(C)C)[C@H](C)NC(=O)[C@H]([C@@H](C)O)NC(=O)[C@H](CC(=O)O)NC(=O)[C@H](CC(C)C)NC8=O)cc6)CC5)CC4)cc3)c(c2)CNC(=O)[C@@H]2CCCN2[C@H](C(=O)NC(C)(C)C)[C@H](C)NC(=O)[C@H]([C@@H](C)O)NC(=O)[C@H](CC(=O)O)NC1=O", "11 nM"]
]}

Input: Annotate the compound CC(C)C[C@@H]1NC(=O)c2ccc(-c3ccc(N4CCN(C(=O)C56CC7CC(C5)CC(C(=O)N5CCN(c8ccc(-c9ccc%10cc9CNC(=O)[C@@H]9CCCN9[C@H](C(=O)NC(C)(C)C)[C@H](C)NC(=O)[C@H]([C@@H](C)O)NC(=O)[C@H](CC(=O)O)NC(=O)[C@H](CC(C)C)NC%10=O)cc8)CC5)(C7)C6)CC4)cc3)c(c2)CNC(=O)[C@@H]2CCCN2[C@H](C(=O)NC(C)(C)C)[C@H](C)NC(=O)[C@H]([C@@H](C)O)NC(=O)[C@H](CC(=O)O)NC1=O with its measured IC50.
Output: 14 nM

Input: Supply IC50 value. Item: CC(C)C[C@@H]1NC(=O)c2ccc(-c3ccc(N4CCN(C(=O)c5ccc(-c6cccc(C(=O)N7CCN(c8ccc(-c9ccc%10cc9CNC(=O)[C@@H]9CCCN9[C@H](C(=O)NC(C)(C)C)[C@H](C)NC(=O)[C@H]([C@@H](C)O)NC(=O)[C@H](CC(=O)O)NC(=O)[C@H](CC(C)C)NC%10=O)cc8)CC7)n6)nc5)CC4)cc3)c(c2)CNC(=O)[C@@H]2CCCN2[C@H](C(=O)NC(C)(C)C)[C@H](C)NC(=O)[C@H]([C@@H](C)O)NC(=O)[C@H](CC(=O)O)NC1=O
Output: 14 nM

Input: Given CC(C)C[C@@H]1NC(=O)c2ccc(-c3ccc(N4CCN(Cc5ccc(CN6CCN(c7ccc(-c8ccc9cc8CNC(=O)[C@@H]8CCCN8[C@H](C(=O)NC(C)(C)C)[C@H](C)NC(=O)[C@H]([C@@H](C)O)NC(=O)[C@H](CC(=O)O)NC(=O)[C@H](CC(C)C)NC9=O)cc7)CC6)cc5)CC4)cc3)c(c2)CNC(=O)[C@@H]2CCCN2[C@H](C(=O)NC(C)(C)C)[C@H](C)NC(=O)[C@H]([C@@H](C)O)NC(=O)[C@H](CC(=O)O)NC1=O , respond with its IC50.
Output: 12 nM

Input: Tell me its IC50 given CC(C)C[C@@H]1NC(=O)C[C@H](CCCCN)N(C)C(=O)[C@H](CCCCNC(=O)CCCCCC(=O)NCCCC[C@@H]2NC(=O)[C@@H]3CCCN3[C@H](C(=O)NC(C)(C)C)[C@H](C)NC(=O)[C@H]([C@@H](C)O)NC(=O)[C@H](CC(=O)O)NC(=O)[C@H](CC(C)C)NC(=O)C[C@H](CCCCN)N(C)C2=O)NC(=O)[C@@H]2CCCN2[C@H](C(=O)NC(C)(C)C)[C@H](C)NC(=O)[C@H]([C@@H](C)O)NC(=O)[C@H](CC(=O)O)NC1=O as the entry.
Output: 6.1 nM

Where do the numbers come from? From patent US11713338B2.
